# System: PBMC
# PROTOCOL: Immunomodulatory activity in human PBMCs assessed as increase in PMA/ionomycin-induced IL6 release at 20 uM incubated for 18 hrs by multiplexed cytokine assay
# Type: functional, cell-based
The source made the active and inactive calls. The rule behind the calls is not given here.
METRIC_NAME: Activity

> print(dat)
                        structure.as.smiles  test.result
1  CCOC(=O)CC[C@@H](NC(=O)[C@H](C)NC(=O)COCCN1C(=O)c2ccccc2S1(=O)=O)C(N)=O     inactive
2  CCOC(=O)CC[C@@H](NC(=O)[C@H](C)NC(=O)CCCCN1C(=O)c2ccccc2S1(=O)=O)C(N)=O     inactive
3  CCOC(=O)CC[C@@H](NC(=O)[C@H](C)NC(=O)CNC(=O)c1cc2ccccc2[nH]1)C(N)=O     inactive
